// pIC50 lookup, one value per entry
- assaySystem: AgrA (Staphylococcus aureus)
- Sequence (P0A0I7 whole entry): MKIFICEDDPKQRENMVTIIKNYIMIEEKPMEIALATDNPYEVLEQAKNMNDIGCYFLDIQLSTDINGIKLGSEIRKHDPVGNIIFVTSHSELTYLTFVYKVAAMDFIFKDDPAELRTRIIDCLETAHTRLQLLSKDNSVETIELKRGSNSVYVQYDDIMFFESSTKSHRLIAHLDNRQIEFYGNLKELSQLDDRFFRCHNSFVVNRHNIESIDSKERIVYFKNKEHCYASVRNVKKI
- assayProtocol: cell-based
- Design: species or system S. aureus USA300 strain UAMS-1625
- testSettings: IC50 at 40 mg/mL HSA, LB medium supplemented with 40 mg/mL human serum albumin
pIC50: −log10 of the molar value.
valueKind: pIC50

- Cc1ccc(S(=O)(=O)c2nnn3c2[nH]c(=O)c2cc(O)c(N4CC5(CN(C)C5)C4)cc23)c(C)c1: > 4.68
- Cc1ccc(S(=O)(=O)c2nnn3c2[nH]c(=O)c2ccc(N4CCOC5(CNC5)C4)cc23)c(C)c1: 3.98 to 4.68
- Cc1ccc(S(=O)(=O)c2n[nH]n3c2nc(=O)c2ccc(N4CC5(C4)CC(C)(O)C5)cc23)c(C)c1: 3.98 to 4.68
- Cc1ccc(S(=O)(=O)c2n[nH]n3c2nc(=O)c2ccc(N4CCC5(CCN(C)CC5)CC4)cc23)c(C)c1: 4.02 to 4.72
- Cc1ccc(S(=O)(=O)c2nnn3c2[nH]c(=O)c2ccc(N4CCC(N(C)C)CC4)cc23)c(C)c1: 3.98 to 4.68
- Cc1ccc(S(=O)(=O)c2n[nH]n3c2nc(=O)c2ccc(N4CCC5(CCN(C)CC5)C4)cc23)c(C)c1: > 4.70
- Cc1ccc(S(=O)(=O)c2nnn3c2[nH]c(=O)c2ccc(N4CCCNCC4)cc23)c(C)c1: > 4.66
- Cc1ccc(S(=O)(=O)c2nnn3c2[nH]c(=O)c2ccc(N4C[C@H]5CNC[C@H]5C4)cc23)c(C)c1: 3.97 to 4.67
- Cc1ccc(S(=O)(=O)c2nnn3c2[nH]c(=O)c2ccc(N4CCN(C5CC5)CC4)cc23)c(C)c1: 3.98 to 4.68
- Cc1ccc(S(=O)(=O)c2n[nH]n3c2nc(=O)c2ccc(N4CCOC5(CCN(C)CC5)C4)cc23)c(C)c1: 4.02 to 4.72
- CNC1CCN(c2ccc3c(=O)[nH]c4c(S(=O)(=O)c5ccc(C)cc5C)nnn4c3c2)CC1: 3.97 to 4.67
- Cc1ccc(S(=O)(=O)c2nnn3c2[nH]c(=O)c2ccc(N4CCC5(CN(C)CCO5)C4)cc23)c(C)c1 (stereo not drawn): 4.01 to 4.71
- Cc1ccc(S(=O)(=O)c2nnn3c2[nH]c(=O)c2ccc(N4CCN5CCOCC5C4)cc23)c(C)c1 (stereo not drawn): 4.00 to 4.69
- Cc1ccc(S(=O)(=O)c2nnn3c2[nH]c(=O)c2ccc(N4CCN(CCO)CC4)cc23)c(C)c1: 3.98 to 4.68
- Cc1ccc(S(=O)(=O)c2nnn3c2[nH]c(=O)c2ccc(N4CCN(C)C(C)(C)C4)cc23)c(C)c1: 3.98 to 4.68
